Tested on: SK-MEL-28 melanoma
protocol-summary: NCI tumour cell line growth inhibition, 48 h
Reported GI50 is given for each of the following compounds.

These solved cases illustrate the format of a correct answer.
compound="Cc1ccc2oc(=O)cc(C3c4ccc([nH]4)C(c4cc(=O)oc5ccc(C)cc45)c4ccc([nH]4)C(c4cc(=O)oc5ccc(C)cc45)c4ccc([nH]4)C(c4cc(=O)oc5ccc(C)cc45)c4ccc3[nH]4)c2c1 (centres undefined)" measured_on="SK-MEL-28 melanoma" val="75 nM"
compound=COc1ccc(Cn2c3c(c4c(O)cccc42)C(=O)c2ccccc2-3)cc1 measured_on="SK-MEL-28 melanoma" val="11600 nM"

## Task I would be grateful if you could share the reported GI50 for CCOC(=O)c1cn2ncnc(Oc3ccc(NC(=O)NCCN(CC)CC)c(Cl)c3)c2c1C .
## Result 1690 nM

## Task Another compound to look at: Cc1ccc(C(=O)Nc2ccccc2C(=O)N/N=C(\c2ccccc2)c2ccccn2)cc1
## Result 597 nM

====

Tested on: NCI-H23 lung
protocol-summary: NCI tumour cell line growth inhibition, 48 h
experimental-readout: TGI

## Task Need TGI, item O=C(O)c1ccc(/C=N\N(CCO)C2=NCCN2)cc1
## Result > 100 µM

## Task Another compound: CNC(=O)C(NC(=O)[C@H](CC(C)C)NC(=O)[C@@H](S)CCN1C(=O)N(C)C(C)(C)C1=O)C(C)(C)C (some centres not stated)
## Result > 100 µM

## Task Consider next the compound O=C1c2c(O)cccc2C(C(=O)CCCC(=O)C2c3cccc(O)c3C(=O)c3c(O)cccc32)c2cccc(O)c21 in the same way.
## Result 1.13 µM

## Task Likewise for O=C(O)C1=C(Cl)c2ccccc2S1(=O)=O ?
## Result > 100 µM

## Task Please give the result for COc1cc(C(=C2SCCS2)c2nccc3cc(OC)c(OC)cc23)c([N+](=O)[O-])cc1OC too.
## Result > 100 µM

## Task Entry COc1cc(C(=O)/C=C/c2c(-c3cccs3)nc3ccccn23)cc(OC)c1OC please
## Result 5.33 µM

## Task Item: Cc1[nH]ccc2cc3nc4ccccc4c3cc12
## Result 14.5 µM

## Task Please answer likewise for CN(C)C(=O)CO/N=C1/C(c2c(O)[nH]c3ccccc23)=Nc2ccccc21
## Result > 100 µM

## Task And the next one, Cc1noc(C)c1N=Nc1ccc2nonc2c1N ?
## Result > 100 µM

## Task Same thing, different compound: CN(C)CCN1C(=O)c2cccc3c(-c4ccc5ncn(C6CCCCC6)c5c4)ccc(c23)C1=O
## Result 3.82 µM

## Task Same question for CC(C)=CCC[C@@H](C)C1=C(O)C(Nc2ccccc2F)=C(C)C(=O)C1=O please.
## Result > 56.8 µM

## Task Query CCOC(=O)CC(=Nc1cc(C)on1)N(CC)CC next
## Result > 100 µM

====

System: HCT-116 colon
protocol-summary: NCI tumour cell line growth inhibition, 48 h
experimental-readout: TGI

Examples from the recorded data:
molecule="CNC(=O)C(NC(=O)[C@H](CC(C)C)NC(=O)[C@@H](S)CCN1C(=O)N(C)C(C)(C)C1=O)C(C)(C)C (some centres undefined)" val="> 100 µM"
molecule=Nc1ccc(S(=O)(=O)c2ccc(N=[N+]([O-])c3ccc(S(=O)(=O)c4ccc(N)cc4)cc3)cc2)cc1 val="> 100 µM"

## Task # get_value(readout= TGI, system= HCT-116 colon) for CO[C@H]1/C=C/C[C@H](C)[C@@H](C)S(=O)(=O)NC(=O)c2ccc3c(c2)N(C[C@@H]2CC[C@H]21)C[C@@]1(CCCc2cc(Cl)ccc21)CO3
## Result 8.35 µM

## Task // query: Cc1cc(C)c(N)c(C)c1N
## Result > 100 µM

====

Test system: MDA-N
protocol-summary: NCI tumour cell line growth inhibition, 48 h
experimental-readout: TGI

## Task # query: TGI of entry O=C(O)C1C2CCC(C2)C1c1ccccc1 (stereo not given)
## Result > 100 µM

## Task Now consider COC(=O)c1cccc2c1Oc1ccccc1S2 .
## Result > 100 µM

## Task Ok, now C=CC1=C(C)C(Cc2[nH]c(/C=c3\[nH]/c(=C/C4=NC(=O)C(C)/C4=C\C)c(C)c3CCC(=O)O)c(CCC(=O)OC)c2C)NC1=O (stereo not given)
## Result 66.7 µM

====

Test system: NCI-H522 lung
protocol-summary: NCI tumour cell line growth inhibition, 48 h
experimental-readout: TGI (µM)
Provide only the numeric value, understood in µM.

## Task Entry CCc1c(-c2coc(CC/C(C)=C/c3ccccc3)n2)oc(OC)c(C)c1=O has what TGI?
## Result 15.3

====

System: IGROV1 ovarian
protocol-summary: NCI tumour cell line growth inhibition, 48 h
experimental-readout: TGI

Reference set, count: 3
molecule=C/C(CC(=O)Nc1ccc(NC(=O)/C(C)=N/NS(=O)(=O)c2ccc(C)cc2)cc1)=N\NS(=O)(=O)c1ccc(C)cc1 measured_on="IGROV1 ovarian" experimental_readout=TGI val="> 100 µM"
molecule="COc1ccc(C2c3c(-c4ccccc4)nn(-c4ccccc4)c3Oc3ncn(N)c(=N)c32)cc1OC (stereo not drawn)" measured_on="IGROV1 ovarian" experimental_readout=TGI val="3.2 µM"
molecule="OC1NC2CC3NC(O)C(O)NC3CC2NC1O (stereo not drawn)" measured_on="IGROV1 ovarian" experimental_readout=TGI val="> 100 µM"

## Task # get_value(readout='TGI', item= O=C(Cc1ccccc1)NN1C(=O)C(Cl)C1c1ccccc1 (stereo not drawn) )
## Result > 100 µM

## Task Another: Oc1cccc2nc3cc(CN4CCOCC4)c(CN4CCOCC4)cc3nc12
## Result > 100 µM

## Task Moving on to the next molecule: CCCCCCCCCCCCCCCCCCNC(=S)/N=C/c1c(O)cc(C)oc1=O
## Result 55.8 µM

## Task Here is the next molecule: CCCCCCCCCCOC1C(C(C)OCCCN(C)C)OC2OC3(CCCCC3)OC21 (stereo not drawn)
## Result 28.1 µM

## Task And for CO[C@H]1/C=C/C[C@H](C)[C@@H](C)S(=O)(=O)NC(=O)c2ccc3c(c2)N(C[C@@H]2CC[C@H]21)C[C@@]1(CCCc2cc(Cl)ccc21)CO3 ?
## Result 10.6 µM

## Task And the next one, C[n+]1c(-c2ccc(/C=N/Nc3n[nH]c(=S)n3N/N=C/c3ccc(-c4cn5ccccc5[n+]4C)cc3)cc2)cn2ccccc21 ?
## Result > 100 µM

## Task Try this molecule too: CN(Cc1ccccc1)c1nc(=[N+](C)C)ss1
## Result > 100 µM

====

System: SW-620 colon
protocol-summary: NCI tumour cell line growth inhibition, 48 h; in the data active means GI50 below about 0.43 µM; inactive means the rest
Result category, one only: t = active, f = inactive

smiles_code=O=C1C(Cl)=C(Nc2ccc3c(c2NC2=C(Cl)C(=O)c4ccccc4C2=O)C(=O)c2ccccc2C3=O)C(=O)c2ccccc21 measured_on="SW-620 colon" class=f
smiles_code=COc1cc(/C=N/O)nc(-c2ccccn2)c1 measured_on="SW-620 colon" class=t

## Task Answer briefly: the call reported for CCNC(=O)CCCCC(=O)c1c(C)[nH]c(/C=C2\N=C(c3ccc[nH]3)C=C2OC)c1C in this assay.
## Result f

====

System: UACC-62 melanoma
protocol-summary: NCI tumour cell line growth inhibition, 48 h
Measured TGI accompanies every entry in the list below.

Check out these entries, answers already filled in.
molecule=CCOc1ccc(C(c2c(O)c3ccccc3oc2=O)c2c(O)c3ccccc3oc2=O)cc1 measured_on="UACC-62 melanoma" experimental_readout=TGI val="> 100 µM"
molecule=N#CNc1nc(C(=O)Nc2ccc(Cl)cc2)cc(-c2ccccc2)n1 measured_on="UACC-62 melanoma" experimental_readout=TGI val="> 100 µM"
molecule=CS(=O)(=O)OC1CCN(C2(c3cccc(O)c3)CCCCC2)CC1 measured_on="UACC-62 melanoma" experimental_readout=TGI val="> 100 µM"
molecule=C[N+](C)(N)Cc1csc(-c2ccc(Cl)cc2)n1 measured_on="UACC-62 melanoma" experimental_readout=TGI val="> 100 µM"
molecule="CCOC(=O)C1CCn2c(nc3c(=O)n(C)c(=O)n(C)c32)S1 (stereo not given)" measured_on="UACC-62 melanoma" experimental_readout=TGI val="> 100 µM"
molecule="CC1(C)C(C(=O)OC(C#N)c2cccc(OCC(=O)OCc3ccccc3)c2)C1(C)C (stereo not given)" measured_on="UACC-62 melanoma" experimental_readout=TGI val="> 100 µM"
molecule="c1cc(C2N3CCCN2CC3)ccn1 (stereo not given)" measured_on="UACC-62 melanoma" experimental_readout=TGI val="> 100 µM"
molecule=Cc1cc2nc(NS(=O)(=O)c3cc(C)c(Cl)cc3S)[nH]c2cc1C measured_on="UACC-62 melanoma" experimental_readout=TGI val="> 100 µM"
molecule=O=C1C(Cl)=C(Nc2ccc3c(c2NC2=C(Cl)C(=O)c4ccccc4C2=O)C(=O)c2ccccc2C3=O)C(=O)c2ccccc21 measured_on="UACC-62 melanoma" experimental_readout=TGI val="2.9 µM"

Attention now shifts to the item below.
## Task Suppose we examine the molecule CN1CCN(CCCCNc2cc3c4ccccc4c(NCCCCN4CCN(C)CC4)cc3c3ccccc23)CC1 ; what TGI value has been reported?
## Result 6.05 µM
